// reported solubility kinetic for each item listed
Experiment: physchem
Assay type: physicochemical
Details: pH 7.4, aqueous buffer, kinetic from dmso stock
READOUT_KIND: solubility kinetic (µM)

- COc1cccc(-c2cc(Nc3ccccc3)[nH]c(=O)n2)c1: 4.7
- COc1cccc(-c2cc(=O)[nH]c(Nc3ccccc3)n2)n1: 10.4
- COc1cc(-c2cc(=O)[nH]c(Nc3ccccc3)n2)ccn1: 11.5
- COc1cccc(-c2cc(=O)[nH]c(Nc3ccnc(N)c3)n2)c1: 184
- COc1cccc(-c2cc(=O)[nH]c(Nc3cccc(O)c3)n2)c1: 14.2
- COc1cccc(-c2cc(=O)[nH]c(Nc3cc[nH]n3)n2)c1: 48.7

----------
Test: physchem
Assay type: physicochemical
Details: pH 7.4
READOUT_KIND: logD

• COc1cccc(-c2cc(Nc3ccccc3)[nH]c(=O)n2)c1 [Compound 1b-iso] = 2.78
• COc1cccc(-c2nc(Nc3c[nH]c(C(=O)O)c3)cc(=O)[nH]2)c1 [1g′] = -0.62
• CC(C)Cc1cc(C(=O)NCCO)nc(=O)[nH]1 [Compound 2a] = 0.02
• COc1cccc(-c2cc(=O)[nH]c(Nc3cccc(O)c3)n2)c1 [Compound 1c] = 2.49
• COc1cc(-c2cc(=O)[nH]c(Nc3ccc(Cl)c(O)c3)n2)ccn1 [Compound 1d] = 3.15
• O=c1cc(Nc2cccc(O)c2)[nH]c(=O)[nH]1 [Compound 9c] = 0.38
• COc1ccc(C)c(-c2cc(=O)[nH]c(Nc3ccccc3)n2)c1 [Compound 1v] = 2.91
• COc1cccc(-c2cc(=O)[nH]c(Nc3cc[nH]n3)n2)c1 [Compound 1t] = 2.67
• COc1cccc(-c2nc(Nc3ccccc3)cc(=O)[nH]2)c1 [Compound 1b] = 3.78

----------
Target: NRP-1/VEGF-A interaction (Homo sapiens, UniProt O14786)
Construct: coated with the extracellular domain of human NRP-1 (containing the a1a2 and the b1b2 regions)
Sequence (O14786 22-856 limits assumed): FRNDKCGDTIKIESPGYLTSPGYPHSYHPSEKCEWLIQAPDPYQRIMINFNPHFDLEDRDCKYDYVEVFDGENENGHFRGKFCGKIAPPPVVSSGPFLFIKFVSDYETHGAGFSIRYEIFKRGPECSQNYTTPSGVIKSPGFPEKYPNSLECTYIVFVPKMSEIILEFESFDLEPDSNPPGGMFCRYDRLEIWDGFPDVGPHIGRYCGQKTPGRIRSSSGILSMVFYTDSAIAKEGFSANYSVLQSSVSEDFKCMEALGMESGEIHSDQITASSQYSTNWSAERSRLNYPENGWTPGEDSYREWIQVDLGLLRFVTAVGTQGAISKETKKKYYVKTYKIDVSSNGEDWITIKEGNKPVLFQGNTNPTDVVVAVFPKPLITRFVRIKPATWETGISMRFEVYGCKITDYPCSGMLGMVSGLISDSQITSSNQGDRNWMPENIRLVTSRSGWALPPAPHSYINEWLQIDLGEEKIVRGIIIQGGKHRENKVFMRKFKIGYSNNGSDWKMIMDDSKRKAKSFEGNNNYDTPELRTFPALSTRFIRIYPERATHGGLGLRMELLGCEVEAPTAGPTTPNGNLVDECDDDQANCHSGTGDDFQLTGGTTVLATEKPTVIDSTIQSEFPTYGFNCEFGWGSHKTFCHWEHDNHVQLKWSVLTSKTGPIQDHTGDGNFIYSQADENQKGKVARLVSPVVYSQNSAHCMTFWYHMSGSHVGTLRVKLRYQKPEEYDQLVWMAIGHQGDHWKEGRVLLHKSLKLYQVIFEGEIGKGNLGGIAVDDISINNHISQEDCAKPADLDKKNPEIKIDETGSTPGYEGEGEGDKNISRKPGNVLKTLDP
Assay: ELISA-based NRP1-VEGF-A165 protein binding assay (concentration-response, IC50)
Settings: 20 nM biotinylated hVEGF-A165 with 4 μg/ml heparin, n=3, read-out: Calculated IC50 values of inhibiting the NRP-1/VEGF-A interaction
READOUT_KIND: log10 IC50 (log10 of the value in µM)

* COc1cccc(-c2cc(=O)[nH]c(Nc3ccnc(N)c3)n2)c1 [Compound 1a] | 2.33
* O=c1cc(Nc2cccc(O)c2)[nH]c(=O)[nH]1 [Compound 9c] | 2.67
* COc1cccc(-c2cc(=O)[nH]c(Nc3ccccc3)n2)n1 [Compound 1u] | 2.57
* COc1cccc(-c2cc(=O)[nH]c(Nc3cccc(O)c3)n2)c1 [Compound 1c] | 1.36
* COc1cccc(-c2cc(=O)[nH]c(Nc3cc[nH]n3)n2)c1 [Compound 1t] | 2.11
* COc1cc(-c2cc(=O)[nH]c(Nc3ccc(Cl)c(O)c3)n2)ccn1 [Compound 1d] | 2.13
* COc1cccc(-c2cc(Nc3ccccc3)[nH]c(=O)n2)c1 [Compound 1b-iso] | 2.02
* COc1cccc(-c2cc(=O)[nH]c(Nc3c[nH]c(C(=O)O)c3)n2)c1 [1g′-iso] | 1.51
* NC(N)=NCCC[C@H](NC(=O)c1sccc1NS(=O)(=O)c1cccc2nsnc12)C(=O)O [EG00229, reference compound] | 3.14

----------
Biological target: NRP-1/VEGF-A interaction (Homo sapiens)
Construct: coated with the extracellular domain of human NRP-1 (containing the a1a2 and the b1b2 regions)
Sequence (O14786 22-856 limits assumed): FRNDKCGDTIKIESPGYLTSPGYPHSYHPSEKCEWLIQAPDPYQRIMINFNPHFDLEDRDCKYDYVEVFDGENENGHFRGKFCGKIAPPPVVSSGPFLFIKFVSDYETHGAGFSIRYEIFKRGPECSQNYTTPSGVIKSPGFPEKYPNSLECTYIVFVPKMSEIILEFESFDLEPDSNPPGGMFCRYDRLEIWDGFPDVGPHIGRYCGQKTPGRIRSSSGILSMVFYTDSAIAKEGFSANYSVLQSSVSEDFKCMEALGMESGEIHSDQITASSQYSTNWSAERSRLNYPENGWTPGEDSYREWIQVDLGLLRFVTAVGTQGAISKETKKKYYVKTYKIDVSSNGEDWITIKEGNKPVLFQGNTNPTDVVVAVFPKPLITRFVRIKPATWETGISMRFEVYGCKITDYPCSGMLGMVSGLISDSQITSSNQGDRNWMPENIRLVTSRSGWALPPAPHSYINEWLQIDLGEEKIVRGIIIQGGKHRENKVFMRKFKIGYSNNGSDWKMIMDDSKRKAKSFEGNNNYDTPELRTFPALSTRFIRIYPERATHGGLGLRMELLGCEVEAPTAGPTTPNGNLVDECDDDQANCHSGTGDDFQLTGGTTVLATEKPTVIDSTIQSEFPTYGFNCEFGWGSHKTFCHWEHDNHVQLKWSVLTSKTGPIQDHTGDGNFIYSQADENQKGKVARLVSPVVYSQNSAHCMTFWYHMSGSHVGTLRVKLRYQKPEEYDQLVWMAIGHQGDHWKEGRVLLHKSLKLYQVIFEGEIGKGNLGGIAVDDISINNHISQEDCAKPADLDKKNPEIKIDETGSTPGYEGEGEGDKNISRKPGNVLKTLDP
Assay: ELISA-based NRP1-VEGF-A165 protein binding assay (concentration-response, IC50)
Conditions: 20 nM biotinylated hVEGF-A165 with 4 μg/ml heparin, n=3, read-out: Calculated IC50 values of inhibiting the NRP-1/VEGF-A interaction
pIC50: −log10 of the molar value.
READOUT_KIND: pIC50

- COc1cccc(-c2nc(Nc3c[nH]c(C(=O)O)c3)cc(=O)[nH]2)c1: 4.55
- COc1cccc(-c2nc(Nc3ccccc3)cc(=O)[nH]2)c1: 3.95
- COc1cc(-c2cc(=O)[nH]c(Nc3ccccc3)n2)ccn1: 2.99
- Cc1nc(N2CCOCC2)ncc1-c1cc(=O)[nH]c(Nc2ccccc2)n1: 5.08

----------
// reported half-life for each item listed
Experiment: in vitro
Assay type: in vitro ADME
Details: rat, microsomes
READOUT_KIND: half-life (min)

• COc1cccc(-c2nc(Nc3ccccc3)cc(=O)[nH]2)c1 [Compound 1b] = 8.3
• COc1cccc(-c2cc(=O)[nH]c(Nc3cc[nH]n3)n2)c1 [Compound 1t] = 12.7
• COc1cccc(-c2cc(Nc3ccccc3)[nH]c(=O)n2)c1 [Compound 1b-iso] = 4.4

----------
Experiment: in vitro
Assay type: in vitro ADME
Details: mouse, microsomes
// boundary case: half-life equal to 20 min maps to 0; strictly smaller maps to 1

• COc1cccc(-c2cc(Nc3ccccc3)[nH]c(=O)n2)c1 = 0
• COc1ccc(C)c(-c2cc(=O)[nH]c(Nc3ccccc3)n2)c1 = 0
• CC(C)Cc1cc(C(=O)NCCO)nc(=O)[nH]1 = 0
• COc1cccc(-c2nc(Nc3ccccc3)cc(=O)[nH]2)c1 = 1
• COc1cccc(-c2cc(=O)[nH]c(Nc3cccc(O)c3)n2)c1 = 0
• COc1cccc(-c2nc(Nc3c[nH]c(C(=O)O)c3)cc(=O)[nH]2)c1 = 0
• COc1cccc(-c2cc(=O)[nH]c(Nc3c[nH]c(C(=O)O)c3)n2)c1 = 0
• COc1cc(-c2cc(=O)[nH]c(Nc3ccc(Cl)c(O)c3)n2)ccn1 = 0
• O=c1cc(Nc2cccc(O)c2)[nH]c(=O)[nH]1 = 0
• COc1cccc(-c2cc(=O)[nH]c(Nc3ccnc(N)c3)n2)c1 = 0
• COc1cc(-c2cc(=O)[nH]c(Nc3ccccc3)n2)ccn1 = 1
• COc1cccc(-c2cc(=O)[nH]c(Nc3ccccc3)n2)n1 = 1
• COc1cccc(-c2cc(=O)[nH]c(Nc3cc[nH]n3)n2)c1 = 1
